Origin of measurements: patent US20220267260A1

# Target System: UniProt:Q92794
Measured Quantity: IC50

Query: State IC50 on UniProt:Q92794. Entry: Cc1cc(-c2ccccc2)cc(C(=O)NNS(=O)(=O)C2CCCN(C(=O)C(C)C)C2)c1F (centres unmarked)
Response: ≤ 10 µM

Query: State IC50 on UniProt:Q92794. Entry: O=C(NNS(=O)(=O)c1ccccc1)c1cc(-c2ccccc2)cc2cc[nH]c12
Response: 10 to 50 µM

---

pIC50: −log10 of the molar value. Structures can show the parent of a compound that is named as a salt.
A short record of pIC50 observed with KAT6A (Homo sapiens, UniProt Q92794) follows.
Sequence (Q92794 with tags, fused parts or gaps): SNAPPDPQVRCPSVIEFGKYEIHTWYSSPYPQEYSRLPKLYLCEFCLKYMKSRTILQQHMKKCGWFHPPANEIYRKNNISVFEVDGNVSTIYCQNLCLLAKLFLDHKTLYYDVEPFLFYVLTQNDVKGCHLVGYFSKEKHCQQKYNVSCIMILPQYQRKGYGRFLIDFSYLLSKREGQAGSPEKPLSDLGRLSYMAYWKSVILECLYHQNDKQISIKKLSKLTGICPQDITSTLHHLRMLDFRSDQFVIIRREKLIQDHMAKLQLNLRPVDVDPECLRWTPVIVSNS

• O=C(NNS(=O)(=O)c1ccccc1)c1ncccn1 [Compound I-189] = < 4.00
• Cc1cc(-c2ccccc2)cc(C(=O)NNS(=O)(=O)C2CN(C(=O)C(C)C)C2)c1F [Compound I-114] = 4.30 to 5.00
• Cc1cccc(C(=O)NNS(=O)(=O)Cc2ccccc2)c1F [Compound I-39] = < 4.00

Query: Please give the documented pIC50 of CNC(=O)Cn1nc(C(=O)NNS(=O)(=O)C2CCCCC2)cc1C [Compound I-481]
Response: < 4.00

Query: Please give the documented pIC50 of Cc1cccc(S(=O)(=O)NNC(=O)c2c(F)ccc(-c3ccccc3)c2F)c1 [Compound I-155]
Response: ≥ 5.00

Query: Please give the documented pIC50 of Cn1cnc2cc(-c3ccccc3)c(F)c(C(=O)NNS(=O)(=O)C3CCCCC3)c21 [Compound I-402]
Response: < 4.00

Query: Please give the documented pIC50 of COc1cc(-c2ccccc2)cc(C(=O)NNS(=O)(=O)C2CCCCC2)c1F [Compound I-315]
Response: 4.30 to 5.00

Query: Please give the documented pIC50 of CCc1cc(Cl)c(F)c(C(=O)NNS(=O)(=O)CC2CCCCC2)c1 [Compound I-421]
Response: 4.30 to 5.00

Query: Please give the documented pIC50 of Cc1cc(-c2ccccc2)cc(C(=O)NNS(=O)(=O)Cc2cccc(F)c2)c1F [Compound I-83]
Response: ≥ 5.00

Query: Please give the documented pIC50 of CN1CCC(c2ccc(F)c(C(=O)NNS(=O)(=O)C3CCCCC3)c2)C1 (stereo not shown) [Compound I-407]
Response: < 4.00

Query: Please give the documented pIC50 of O=C(NNS(=O)(=O)c1cccc(-c2ccccc2)c1)c1ccccc1 [Compound I-521]
Response: < 4.00

Query: Please give the documented pIC50 of O=C(NNS(=O)(=O)c1ccccc1)c1cccc2ccccc12 [Compound I-180]
Response: < 4.00

Query: Please give the documented pIC50 of Cc1cc(-c2cccc(OCCN(C)C)c2)cc(C(=O)NNS(=O)(=O)CC2CCCCC2)c1F [Compound I-365]
Response: < 4.00

Query: Please give the documented pIC50 of COc1ccc(Cn2cnc(-c3ccc(F)c(C(=O)NNS(=O)(=O)c4ccccc4)c3F)c2)cc1 [Compound I-222]
Response: ≥ 5.00

Query: Please give the documented pIC50 of O=C(NNS(=O)(=O)c1ccccc1)c1cccc(Cl)c1 [Compound I-190]
Response: 4.30 to 5.00

Query: Please give the documented pIC50 of Cc1cc(-c2ccccc2)cc(C(=O)NNS(=O)(=O)C2CNC2)c1F [Compound I-120, hydrochloride]
Response: < 4.00
